Data credit: patent US20170369590A1

targetSystem: T1, HER2ECDHis (human, UniProt P04626 23-653, biotinylated in the cross-block ELISA (sites not given))
T1 construct: range 1-653; expressed in HEK-293F; also called soluble HER2; biotinylated HER2ECDHis
assayName: ELISA; competitor 025
valueKind: % binding vs no competitor (%)
Enter your answer as a number in %; do not include the unit.

HuMab 025 (antibody, V domains shown, also called TH1014-025; PC1014-025) VH: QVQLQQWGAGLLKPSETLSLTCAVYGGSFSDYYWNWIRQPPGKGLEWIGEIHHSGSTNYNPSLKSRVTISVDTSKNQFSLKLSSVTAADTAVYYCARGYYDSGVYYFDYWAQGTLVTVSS VL: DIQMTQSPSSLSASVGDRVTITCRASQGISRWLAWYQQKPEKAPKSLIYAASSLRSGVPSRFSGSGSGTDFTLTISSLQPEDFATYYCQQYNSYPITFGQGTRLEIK
18
HuMab 050 (antibody, V domains shown, also called TH1014-050; PC1014-050) VH: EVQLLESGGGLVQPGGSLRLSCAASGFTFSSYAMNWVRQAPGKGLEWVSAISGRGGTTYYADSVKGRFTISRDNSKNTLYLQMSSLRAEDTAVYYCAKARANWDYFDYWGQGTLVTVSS VL: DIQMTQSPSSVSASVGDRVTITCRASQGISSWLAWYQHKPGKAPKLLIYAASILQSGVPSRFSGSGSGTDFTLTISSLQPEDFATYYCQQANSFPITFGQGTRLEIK
104
HuMab 098 (antibody, V domains shown, also called TH1014-098; PC1014-098) VH: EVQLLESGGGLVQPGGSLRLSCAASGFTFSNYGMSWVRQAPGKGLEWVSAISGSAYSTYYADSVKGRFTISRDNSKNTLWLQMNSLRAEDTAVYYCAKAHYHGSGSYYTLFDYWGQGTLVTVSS VL: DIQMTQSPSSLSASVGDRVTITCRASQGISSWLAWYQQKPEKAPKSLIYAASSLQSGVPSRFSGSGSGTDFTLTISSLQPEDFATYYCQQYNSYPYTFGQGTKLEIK
108

Return % binding vs no competitor (reported value) for this binder: HuMab 169 (antibody, V domains shown, also called TH1014-169; PC1014-169) VH: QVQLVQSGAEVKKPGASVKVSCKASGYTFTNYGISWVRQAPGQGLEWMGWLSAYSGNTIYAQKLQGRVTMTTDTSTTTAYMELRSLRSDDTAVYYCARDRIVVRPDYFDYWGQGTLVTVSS VL: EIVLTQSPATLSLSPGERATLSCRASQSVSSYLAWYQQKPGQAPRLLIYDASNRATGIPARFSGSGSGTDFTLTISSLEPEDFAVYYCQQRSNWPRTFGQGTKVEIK
98

Return % binding vs no competitor (reported value) for this binder: HuMab 091 (antibody, V domains shown, also called TH1014-091; PC1014-091) VH: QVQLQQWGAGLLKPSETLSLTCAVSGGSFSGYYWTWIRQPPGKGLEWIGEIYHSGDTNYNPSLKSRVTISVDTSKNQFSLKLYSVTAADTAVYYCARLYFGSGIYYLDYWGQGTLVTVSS VL: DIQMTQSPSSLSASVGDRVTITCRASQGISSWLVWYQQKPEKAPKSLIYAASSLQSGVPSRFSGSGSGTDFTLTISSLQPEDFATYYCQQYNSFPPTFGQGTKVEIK
13
